- Test system: UO-31 renal
- TEST_METHOD_NOTES: NCI tumour cell line growth inhibition, 48 h
MEASURED_METRIC: TGI

Report TGI for O=NN1C(c2ccccc2)CCCC1c1ccccc1 (stereo not drawn) please.
> 100 µM

Let us now turn to O=C(NN1C(=O)C(Cl)C1c1ccccc1Cl)c1ccccc1O (stereo not drawn)
> 100 µM

Let us now turn to `O=C1CCCCN1C(=O)c1ccc([N+](=O)[O-])cc1`
> 100 µM

###

- System: OVCAR-5 ovarian
- TEST_METHOD_NOTES: NCI tumour cell line growth inhibition, 48 h
Reported TGI values follow for various compounds

# count of solved cases: 3
[
  {
    "COMPOUND": "O=C(Cc1ccc(Nc2ccnc(C(F)(F)F)c2)cc1)Nc1cc(Cl)ccc1O",
    "TGI": "52.1 µM"
  },
  {
    "COMPOUND": "COc1cc(-c2nc(-c3ccc(-c4nc5ccc(F)cc5[nH]4)cc3)no2)cc(OC)c1OC",
    "TGI": "34.5 µM"
  },
  {
    "COMPOUND": "COc1ccc(N2N=NN(C(C)C)/C2=C(/Cl)c2nnnn2-c2ccc(OC)cc2)cc1",
    "TGI": "26.9 µM"
  }
]

Report TGI for `O=C1/C(=C/c2ccc(Cl)cc2)CN(C(=O)CCN2CCC(=NO)CC2)C/C1=C\c1ccc(Cl)cc1` please.
2.85 µM

Let us now turn to `S=C(N/N=C(\C(=N/NC(=S)N1CCCCC1)c1ccccn1)c1ccccn1)N1CCCCC1`
> 100 µM

Let us now turn to `Nc1c(C(=O)NC23CC4CC(CC(C4)C2)C3)[n+]([O-])c2ccccc2[n+]1[O-]`
> 100 µM

Let us now turn to CC#CC#C/C=C1\C=CC2(OC=CC2OC(C)=O)O1 (centres undefined)
> 100 µM

Let us now turn to CC1(C)CN=CC(C)(OCc2ccccc2)C(=O)NC(C)(C)CN=CC(C)(OCc2ccccc2)C(=O)N1 (centres undefined)
> 10 µM

Let us now turn to CN(C)C=NCC(O)c1ccccc1 (centres undefined)
> 100 µM

Let us now turn to `CN(C)c1ccc(Nc2c3ccccc3nc3cc(NC(=O)CCN4CCCC4)ccc23)cc1`
2.74 µM

Let us now turn to `O=C1C=C(O)c2c(O)ccc(O)c2C1=O`
> 100 µM

Let us now turn to `O=c1c2c(=NCCN3CCCC3)cc3c(=O)n(CCCN4CCOCC4)c(=O)c4ccc(c(O)n1CCCN1CCOCC1)c2c4-3`
1.21 µM

Let us now turn to `Cc1cc2oc3c(ccc(=O)n3C)c(=O)c2c(C)c1Cl`
> 100 µM

Let us now turn to `COc1cc([C@@H]2c3cc4c(cc3[C@@H](c3c(O)cc(O)c5c3O[C@H](c3ccc(O)c(O)c3)[C@H](OC(=O)c3cc(O)c(O)c(O)c3)C5)[C@H]3COC(=O)[C@H]23)OCO4)cc(OC)c1O`
> 100 µM

Let us now turn to COC1C(CO)OC(n2c3c(Cl)cccc3c3c4c(c5c6cccc(Cl)c6[nH]c5c32)C(=O)NC4=O)C(O)C1O (centres undefined)
> 41.9 µM

Let us now turn to `CCOC(=O)c1ccc(N(C=O)CCC(=O)CCl)cc1`
9.23 µM

Let us now turn to CCCCCCCCCCCCCCCC(=O)OCC1OC(OC)C(NC(=O)N(CCCl)N=O)C(O)C1O (centres undefined)
> 74 µM

Let us now turn to `CCOc1cc2c(=O)oc3c(OC)ccc4ccc(c1OC)c2c43`
> 100 µM

Let us now turn to `O=c1[nH]c(=O)n(COCc2ccccc2)c2ccccc12`
> 100 µM
